Test system: Blumeria graminis f. sp. tritici
Test: Test I: wheat powdery mildew, preventive spray on wheat seedlings, visual disease rating
Conditions: Blumeria graminis, in Triticum aestivum, read-out: Test I rating (disease control), wheat powdery mildew; 100 = 100% disease control, 0 = no disease control relative to the controls
Parameter: pest or weed control at 200 µg/mL. Scope: all listed entries.
endpoint-label: pest or weed control at 200 µg/mL (%)

compound | quantitative-readout
Cc1nn(C)c(Nc2c(F)cc(Cl)cc2F)c1-c1ccc(F)cc1Br [Compound 129] | 100
Cc1nn(C)c(Oc2ccc(C#N)cc2Cl)c1-c1ccc(F)cc1F [Compound 140] | 97
Cc1nn(C)c(Nc2ccc(Cl)cc2F)c1-c1c(F)cc(C#N)cc1F [Compound 40] | 100
Cc1nn(C)c(Nc2ccc(F)cc2Cl)c1-c1c(F)cccc1Cl [Compound 58] | 100
Cc1nn(C)c(Nc2c(F)cc(Cl)cc2Cl)c1-c1ccc(F)cc1F [Compound 141] | 100
Cc1nn(C)c(Nc2c(F)cc(F)cc2F)c1-c1ccc(F)cc1Br [Compound 74] | 100
Cc1nn(C)c(Nc2c(F)cc(F)cc2Br)c1-c1ccc(F)cc1Cl [Compound 144] | 100
Cc1nn(C)c(Oc2ccc(C#N)cc2Cl)c1-c1ccc(F)cc1Cl [Compound 37] | 100
Cc1nn(C)c(C(O)c2ccc(F)cc2Br)c1-c1ccc(F)cc1Cl (stereo not shown) [Compound 153] | 0
COc1cc(F)c(-c2c(C)nn(C)c2Nc2c(F)cc(F)cc2F)c(F)c1 [Compound 7] | 100
Cc1nn(C)c(Nc2c(F)cc(F)cc2Cl)c1-c1ccc(F)cc1Br [Compound 84] | 100
Cc1nn(C)c(Nc2c(F)cc(F)cc2Cl)c1-c1c(F)cccc1F [Compound 86] | 100
COc1cc(F)c(-c2c(C)nn(C)c2Nc2ccc(F)cc2Cl)c(F)c1 [Compound 23] | 100
Cc1nn(C)c(Nc2c(F)cc(F)cc2F)c1-c1ccc(F)cc1F [Compound 11] | 99
Cc1nn(C)c(Nc2c(F)cc(F)cc2Br)c1-c1c(F)cccc1F [Compound 146] | 100
Cc1nn(C)c(Nc2ccc(F)cc2Br)c1-c1ccc(F)cc1Cl [Compound 73] | 100
Cc1nn(C)c(C(O)c2ccc(F)cc2Cl)c1-c1ccc(F)cc1Cl (stereo not shown) [Compound 123] | 95
Cc1nn(C)c(C(O)c2c(F)cc(Cl)cc2F)c1-c1ccc(F)cc1Cl (stereo not shown) [Compound 148] | 64
Cc1nn(C)c(Oc2ccc(C#N)cc2Cl)c1-c1c(F)cccc1F [Compound 127] | 97
Cc1nn(C)c(Nc2c(F)cc(Cl)cc2F)c1-c1ccc(F)cc1Cl [Compound 81] | 100
Cc1nn(C)c(Oc2ccc(C#N)cc2F)c1-c1ccc(F)cc1Br [Compound 79] | 100
Cc1nn(C)c(Nc2ccc(F)cc2Br)c1-c1ccc(F)cc1F [Compound 118] | 100
Cc1nn(C)c(Nc2c(F)cc(Cl)cc2Cl)c1-c1ccc(F)cc1Cl [Compound 136] | 100
Cc1nn(C)c(Nc2c(F)cc(Br)cc2F)c1-c1c(F)cccc1F [Compound 145] | 90
Cc1nn(C)c(Oc2ccc(C#N)cc2F)c1-c1c(F)cccc1F [Compound 130] | 100
Cc1nn(C)c(Nc2c(F)cc(Cl)cc2F)c1-c1ccc(C#N)cc1F [Compound 150] | 100
Cc1nn(C)c(Nc2c(F)cc(C#N)cc2F)c1-c1ccc(F)cc1Cl [Compound 25] | 100
Cc1nn(C)c(Nc2c(F)cc(Cl)cc2F)c1-c1ccc(F)cc1F [Compound 126] | 100
Cc1nn(C)c(Nc2c(F)cc(Br)cc2F)c1-c1ccc(F)cc1F [Compound 133] | 100
Cc1nn(C)c(Nc2c(Cl)cc(F)cc2Cl)c1-c1ccc(F)cc1F [Compound 137] | 100
Cc1nn(C)c(Nc2c(F)cc(Cl)cc2F)c1-c1ccc(C#N)cc1Cl [Compound 111] | 99
Cc1nn(C)c(Nc2c(F)cccc2F)c1-c1ccc(F)cc1Cl [Compound 46] | 100
Cc1nn(C)c(Nc2c(F)cc(F)cc2Cl)c1-c1ccc(F)cc1Cl [Compound 82] | 100
Cc1nn(C)c(Nc2c(Cl)cc(F)cc2Cl)c1-c1ccc(F)cc1Cl [Compound 138] | 99
Cc1nn(C)c(Nc2c(F)cc(Br)cc2F)c1-c1ccc(F)cc1Cl [Compound 134] | 100
Cc1nn(C)c(Nc2ccc(F)cc2F)c1-c1ccc(Cl)cc1Cl [Compound 17] | 100
COc1cc(F)c(Nc2c(-c3ccc(F)cc3Cl)c(C)nn2C)c(F)c1 [Compound 3] | 100

###

Here the recorded Test B rating (% disease control) is given for each entry.
Test system: Alternaria solani
Assay: Test B: tomato early blight, preventive spray on tomato seedlings, visual disease rating
Conditions: tomato early blight, preventive spray; 100 = 100% disease control; rating without asterisk

compound | subject-of-test | units-of-measure | Test B rating (% disease control)
CCOc1cc(F)c(-c2c(C)nn(C)c2Nc2c(F)cc(Cl)cc2Cl)c(F)c1 [compound 198] | Alternaria solani | % | 100
Cc1nn(C)c(Nc2c(F)cc(F)cc2Br)c1-c1ccc(F)cc1I [compound 226] | Alternaria solani | % | 97
COc1ccc(-c2c(C)nn(C)c2Nc2c(F)cc(Cl)cc2Cl)c(Cl)c1 [compound 201] | Alternaria solani | % | 100
CCOc1ccc(-c2c(C)nn(C)c2Nc2c(Cl)cc(F)cc2Cl)c(Cl)c1 [compound 208] | Alternaria solani | % | 0
CCOc1cc(F)c(-c2c(C)nn(C)c2Nc2c(F)cc(F)cc2Cl)c(F)c1 [compound 196] | Alternaria solani | % | 100
Cc1nn(C)c(Nc2c(F)cc(Cl)cc2Cl)c1-c1ccc(F)cc1I [compound 222] | Alternaria solani | % | 77
COc1ccc(-c2c(C)nn(C)c2C(O)c2c(F)cc(Cl)cc2F)c(Cl)c1 (racemic) [compound 224] | Alternaria solani | % | 100
Cc1nn(C)c(Nc2c(Cl)cc(Cl)cc2I)c1-c1ccc(F)cc1F [compound 210] | Alternaria solani | % | 0
COc1ccc(-c2c(C)nn(C)c2Nc2c(F)cc(I)cc2F)c(Cl)c1 [compound 220] | Alternaria solani | % | 69
Cc1nn(C)c(Nc2c(F)cc(F)cc2Br)c1-c1ccc(F)cc1Br [Compound 195] | Alternaria solani | % | 100
CCOc1ccc(-c2c(C)nn(C)c2Nc2ccc(F)cc2F)c(Cl)c1 [compound 209] | Alternaria solani | % | 95
Cc1nn(C)c(Nc2c(F)cccc2Cl)c1-c1ccc(F)cc1Cl [Compound 239] | Alternaria solani | % | 100
Cc1nn(C)c(Nc2c(F)cc(Cl)cc2Cl)c1-c1ccc(Cl)cc1F [compound 231] | Alternaria solani | % | 58
Cc1nn(C)c(Nc2c(F)cc(I)cc2F)c1-c1ccc(F)cc1F [compound 216] | Alternaria solani | % | 0
Cc1nn(C)c(Nc2c(F)cc(Cl)cc2F)c1-c1ccc(Cl)cc1F [compound 230] | Alternaria solani | % | 0
CCOc1ccc(-c2c(C)nn(C)c2Nc2c(Cl)cc(F)cc2Cl)c(F)c1 [compound 192] | Alternaria solani | % | 66
CCOc1ccc(-c2c(C)nn(C)c2Nc2c(F)cc(Cl)cc2Cl)c(F)c1 [compound 190] | Alternaria solani | % | 82
COc1ccc(-c2c(C)nn(C)c2Nc2c(F)cc(Cl)cc2F)c(Cl)c1 [compound 204] | Alternaria solani | % | 99

###

System: Botrytis cinerea
Assay: Test A: tomato Botrytis, preventive spray on tomato seedlings, visual disease rating
Settings: tomato Botrytis; 100 = 100% disease control, 0 = no disease control relative to the controls

molecule | Test A rating (disease control) / %
Cc1nn(C)c(Nc2c(Cl)cc(F)cc2Cl)c1-c1c(Cl)cccc1Cl [compound 115] | 99
Cc1nn(C)c(Nc2c(F)cc(F)cc2F)c1-c1c(F)cccc1F [compound 89] | 100
Cc1nn(C)c(Nc2ccc(Cl)cc2Cl)c1-c1c(Cl)cccc1Cl [compound 105] | 99
Cc1nn(C)c(Nc2c(Cl)cc(Cl)cc2Cl)c1-c1ccc(F)cc1F [compound 165] | 100
Cc1nn(C)c(Nc2ccc(F)cc2Cl)c1-c1ccc(Cl)cc1Cl [compound 125] | 99
Cc1nn(C)c(Nc2c(Cl)cc(Cl)cc2Cl)c1-c1ccc(F)cc1Br [compound 174] | 95
Cc1nn(C)c(Oc2c(F)cc(C#N)cc2F)c1-c1ccc(F)cc1F [compound 45] | 100
Cc1nn(C)c(Oc2ccc(C#N)cc2Cl)c1-c1ccc(Cl)cc1Cl [compound 131] | 100
COc1cc(Cl)c(Nc2c(-c3ccc(F)cc3Cl)c(C)nn2C)c(Cl)c1 [compound 85] | 99
Cc1nn(C)c(Nc2ccc(Br)cc2F)c1-c1ccc(F)cc1Br [compound 169] | 100
Cc1nn(C)c(Nc2ccc(F)cc2F)c1-c1c(F)cc(C#N)cc1F [compound 30] | 100
Cc1nn(C)c(Nc2c(Cl)cc(Cl)cc2Cl)c1-c1ccc(F)cc1Cl [compound 170] | 65
Cc1nn(C)c(Nc2c(F)cc(F)cc2F)c1-c1c(F)cccc1Cl [compound 56] | 98
Cc1nn(C)c(Nc2c(F)cc(F)cc2Cl)c1-c1ccc(Cl)cc1Cl [compound 156] | 100
COc1ccc(-c2c(C)nn(C)c2Nc2c(F)cccc2F)c(Cl)c1 [compound 43] | 98
Cc1nn(C)c(Nc2ccc(F)cc2Br)c1-c1ccc(F)cc1Br [compound 95] | 100
Cc1nn(C)c(Nc2ccc(Br)cc2Cl)c1-c1ccc(F)cc1Br [compound 173] | 100
Cc1nn(C)c(Nc2ccc(Cl)cc2Cl)c1-c1ccc(F)cc1Cl [compound 88] | 100
COc1ccc(-c2c(C)nn(C)c2Nc2c(F)cc(F)cc2F)c(Cl)c1 [compound 29] | 100
CCOc1ccc(Nc2c(-c3ccc(F)cc3Cl)c(C)nn2C)c(Cl)c1 [compound 104] | 100
Cc1nn(C)c(Nc2c(F)cc(C#N)cc2F)c1-c1c(F)cc(F)cc1F [compound 26] | 100
Cc1nn(C)c(Nc2ccc(F)cc2Cl)c1-c1ccc(C#N)cc1Cl [compound 112] | 100
Cc1nn(C)c(Nc2ccc(Br)cc2F)c1-c1ccc(F)cc1Cl [compound 135] | 100
COc1ccc(Nc2c(-c3ccc(F)cc3Cl)c(C)nn2C)c(Cl)c1 [compound 101] | 100
Cc1nn(C)c(Nc2ccc(F)cc2Cl)c1-c1ccc(F)cc1Br [compound 96] | 100
Cc1nn(C)c(Nc2ccc(F)cc2Cl)c1-c1ccc(F)cc1F [compound 61] | 100
Cc1nn(C)c(Oc2c(F)cc(C#N)cc2F)c1-c1ccccc1Br [compound 76] | 100
COc1ccc(-c2c(C)nn(C)c2Oc2ccc(C#N)cc2F)c(Br)c1 [compound 100] | 92
Cc1nn(C)c(Nc2ccc(F)cc2Br)c1-c1c(Cl)cccc1Cl [compound 114] | 99
COc1ccc(-c2c(C)nn(C)c2Oc2c(F)cc(C#N)cc2F)c(F)c1 [compound 14] | 99
Cc1nn(C)c(Nc2ccc(Br)cc2Cl)c1-c1ccc(F)cc1F [compound 167] | 100
Cc1nn(C)c(C(O)c2ccc(Cl)cc2F)c1-c1ccc(F)cc1Cl (racemic) [compound 177] | 99
Cc1nn(C)c(Nc2ccc(F)cc2F)c1-c1ccc(F)cc1F [compound 64] | 99
COc1cc(F)c(-c2c(C)nn(C)c2Nc2ccc(C#N)cc2Cl)c(F)c1 [compound 32] | 99
Cc1nn(C)c(Nc2ccc(F)cc2F)c1-c1c(F)cccc1F [compound 49] | 100
Cc1nn(C)c(Nc2ccc(F)cc2Cl)c1-c1c(Cl)cccc1Cl [compound 109] | 100
Cc1nn(C)c(Nc2ccc(F)cc2F)c1-c1ccc(F)cc1Cl [compound 2] | 99
